- assayedTarget: PKA-phosphorylated human C0-C2 (hC0-C2p) (human) (UniProt Q14896)
- experimentSummary: solid-phase binding assay (SPBA); 20 μM C0-C2 (bait) adsorbed onto microtiter plates overnight at 4 °C; 0-20 μM recombinant myosin S2 (prey) added; bound S2 detected with polyclonal anti-S2 antibody and Alexa Fluor 568 secondary antibody; intensity normalised to that at maximal S2; one-phase association fit for Bmax and Kd
Measured pKd, listed per entry.
Just so you know, pKd here is -log10 of the concentration in molar units; reply with that number alone.

Before answering, review these 3 worked examples.
{"columns": ["binder", "pKd"],
 "data": [
  ["human recombinant proximal S2 protein with E924K mutation (hS2^E924K) (domain or fragment, UniProt P12883 838-963, looked up, human β-myosin heavy chain (MYH7), proximal S2, residues 838-963, with the HCM-causing mutation E924K; mutation found in HCM patients, introduced by site-directed mutagenesis; coiled coil in low-salt buffer by CD) PLLKSAEREKEMASMKEEFTRLKEALEKSEARRKELEEKMVSLLQEKNDLQLQVQAEQDNLADAEERCDQLIKNKIQLEAKVKEMNKRLEDEEEMNAELTAKKRKLEDECSELKRDIDDLELTLAK", 6.08],
  ["human recombinant proximal S2 protein with R870H mutation (hS2^R870H) (domain or fragment, UniProt P12883 838-963, looked up, human β-myosin heavy chain (MYH7), proximal S2, residues 838-963, with the HCM-causing mutation R870H; mutation found in HCM patients, introduced by site-directed mutagenesis; coiled coil in low-salt buffer by CD) PLLKSAEREKEMASMKEEFTRLKEALEKSEARHKELEEKMVSLLQEKNDLQLQVQAEQDNLADAEERCDQLIKNKIQLEAKVKEMNERLEDEEEMNAELTAKKRKLEDECSELKRDIDDLELTLAK", 5.90],
  ["human recombinant proximal S2 protein with E930Δ mutation (hS2^E930Δ) (domain or fragment, UniProt P12883 838-963, looked up, human β-myosin heavy chain (MYH7), proximal S2, residues 838-963, with the HCM-causing deletion of E930; mutation found in HCM patients, introduced by site-directed mutagenesis; coiled coil in low-salt buffer by CD) PLLKSAEREKEMASMKEEFTRLKEALEKSEARRKELEEKMVSLLQEKNDLQLQVQAEQDNLADAEERCDQLIKNKIQLEAKVKEMNERLEDEEMNAELTAKKRKLEDECSELKRDIDDLELTLAK", 6.01]
]}

Moving on to another binder below.
Q. Need pKd of human recombinant proximal S2 WT protein (hS2^Wt) (domain or fragment, UniProt P12883 838-963, looked up, pET28a+ vector; also called WT hS2; human cardiac myosin S2) PLLKSAEREKEMASMKEEFTRLKEALEKSEARRKELEEKMVSLLQEKNDLQLQVQAEQDNLADAEERCDQLIKNKIQLEAKVKEMNERLEDEEEMNAELTAKKRKLEDECSELKRDIDDLELTLAK , thanks.
A. 5.13

Values from paper PMC8239744
